- Test system: HT-29
- ASSAY_DETAILS: Growth inhibition of human HT29 cells after 48 hrs by SRB staining method
- Assay type: functional
- PARTICULARS: HT-29, 48 h
API: label(entry) gives Condition met if the entry's GI50 is strictly smaller than 20 µM; on equality or larger values it gives Condition not met.

>  <SMILES_DATA>
COc1ccc(Nc2nc3cc(N)cc(N)c3nc2-c2ccccc2)cc1

>  <ASSIGNED_CATEGORY>
Condition not met

$$$$
>  <SMILES_DATA>
COc1cc(Nc2nc3cc(N)cc(N)c3nc2-c2ccccc2)cc(OC)c1OC

>  <ASSIGNED_CATEGORY>
Condition not met

$$$$
>  <SMILES_DATA>
COc1ccc(Nc2nc3cc(N)cc(N)c3nc2-c2ccccc2)cc1OC

>  <ASSIGNED_CATEGORY>
Condition not met

$$$$
>  <SMILES_DATA>
Nc1cc(N)c2nc(-c3ccccc3)c(Nc3ccc(F)cc3)nc2c1

>  <ASSIGNED_CATEGORY>
Condition met

$$$$
>  <SMILES_DATA>
COc1cc(Nc2nc3cc(N)cc(N)c3nc2-c2ccccc2)cc(OC)c1

>  <ASSIGNED_CATEGORY>
Condition not met

$$$$

====

- Test system: RXF 393
- ASSAY_DETAILS: Growth inhibition of human RXF393 cells after 48 hrs by SRB staining method
- Format: functional
- PARTICULARS: RXF 393, 48 h, read-out: pLC50 (the source's name) (converted)

>  <SMILES_DATA>
COc1cc(Nc2nc3cc(N)cc(N)c3nc2-c2ccccc2)cc(OC)c1

>  <CC50>
95.5 µM

$$$$
>  <SMILES_DATA>
COc1ccc(Nc2nc3cc(N)cc(N)c3nc2-c2ccccc2)cc1OC

>  <CC50>
> 100 µM

$$$$
>  <SMILES_DATA>
Nc1cc(N)c2nc(-c3ccccc3)c(Nc3ccc(F)cc3)nc2c1

>  <CC50>
85.1 µM

$$$$
>  <SMILES_DATA>
COc1ccc(Nc2nc3cc(N)cc(N)c3nc2-c2ccccc2)cc1

>  <CC50>
53.7 µM

$$$$
>  <SMILES_DATA>
COc1cc(Nc2nc3cc(N)cc(N)c3nc2-c2ccccc2)cc(OC)c1OC

>  <CC50>
83.2 µM

$$$$
>  <SMILES_DATA>
Nc1cc(N)c2nc(-c3ccccc3)c(Nc3ccc(Cl)c(Cl)c3)nc2c1

>  <CC50>
> 100 µM

$$$$

====

- System: ACHN
- ASSAY_DETAILS: Growth inhibition of human ACHN cells after 48 hrs by SRB staining method
- Type: functional
- PARTICULARS: read-out: pTGI (converted)
In this section we review reported TGI values for a set of compounds.
RECORDED_METRIC: TGI (µM)

>  <COMPOUND>
COc1cc(Nc2nc3cc(N)cc(N)c3nc2-c2ccccc2)cc(OC)c1OC

>  <PREFIX_OPERATOR>
=

>  <RECORDED_NUMBER>
42.7

$$$$
>  <COMPOUND>
Nc1cc(N)c2nc(-c3ccccc3)c(Nc3ccc(F)cc3)nc2c1

>  <PREFIX_OPERATOR>
=

>  <RECORDED_NUMBER>
22.4

$$$$
>  <COMPOUND>
COc1ccc(Nc2nc3cc(N)cc(N)c3nc2-c2ccccc2)cc1

>  <PREFIX_OPERATOR>
=

>  <RECORDED_NUMBER>
43.7

$$$$
>  <COMPOUND>
CCOC(=O)CCC(NC(=O)c1ccc(Nc2nc3cc(N)cc(N)c3nc2-c2ccccc2)cc1)C(=O)OCC (stereo unspecified)

>  <PREFIX_OPERATOR>
=

>  <RECORDED_NUMBER>
46.8

$$$$
>  <COMPOUND>
COc1ccc(Nc2nc3cc(N)cc(N)c3nc2-c2ccccc2)cc1OC

>  <PREFIX_OPERATOR>
>

>  <RECORDED_NUMBER>
100

$$$$
>  <COMPOUND>
COc1cc(Nc2nc3cc(N)cc(N)c3nc2-c2ccccc2)cc(OC)c1

>  <PREFIX_OPERATOR>
=

>  <RECORDED_NUMBER>
83.2

$$$$

====

- System: SNB-19
- ASSAY_DETAILS: Growth inhibition of human SNB19 cells after 48 hrs by SRB staining method
- Assay type: functional
- PARTICULARS: SNB-19, 48 h

>  <COMPOUND>
COc1cc(Nc2nc3cc(N)cc(N)c3nc2-c2ccccc2)cc(OC)c1OC

>  <LC50>
> 100 µM

$$$$
>  <COMPOUND>
CCOC(=O)CCC(NC(=O)c1ccc(Nc2nc3cc(N)cc(N)c3nc2-c2ccccc2)cc1)C(=O)OCC (stereo unspecified)

>  <LC50>
> 100 µM

$$$$
>  <COMPOUND>
COc1ccc(Nc2nc3cc(N)cc(N)c3nc2-c2ccccc2)cc1OC

>  <LC50>
> 100 µM

$$$$
>  <COMPOUND>
COc1cc(Nc2nc3cc(N)cc(N)c3nc2-c2ccccc2)cc(OC)c1

>  <LC50>
> 100 µM

$$$$
>  <COMPOUND>
COc1ccc(Nc2nc3cc(N)cc(N)c3nc2-c2ccccc2)cc1

>  <LC50>
> 100 µM

$$$$
>  <COMPOUND>
Nc1cc(N)c2nc(-c3ccccc3)c(Nc3ccc(Cl)c(Cl)c3)nc2c1

>  <LC50>
70.8 µM

$$$$

====

- System: PC-3
- ASSAY_DETAILS: Growth inhibition of human PC3 cells after 48 hrs by SRB staining method
- Format: functional
- PARTICULARS: PC-3, 48 h, read-out: pLC50 (the source's name) (converted)
Readings of CC50 for the listed compounds

>  <COMPOUND>
COc1ccc(Nc2nc3cc(N)cc(N)c3nc2-c2ccccc2)cc1OC

>  <PREFIX_OPERATOR>
=

>  <CC50 [µM]>
93.3

$$$$
>  <COMPOUND>
Nc1cc(N)c2nc(-c3ccccc3)c(Nc3ccc(Cl)c(Cl)c3)nc2c1

>  <PREFIX_OPERATOR>
=

>  <CC50 [µM]>
89.1

$$$$
>  <COMPOUND>
COc1cc(Nc2nc3cc(N)cc(N)c3nc2-c2ccccc2)cc(OC)c1

>  <PREFIX_OPERATOR>
=

>  <CC50 [µM]>
57.5

$$$$
>  <COMPOUND>
COc1ccc(Nc2nc3cc(N)cc(N)c3nc2-c2ccccc2)cc1

>  <PREFIX_OPERATOR>
>

>  <CC50 [µM]>
100

$$$$
>  <COMPOUND>
COc1cc(Nc2nc3cc(N)cc(N)c3nc2-c2ccccc2)cc(OC)c1OC

>  <PREFIX_OPERATOR>
>

>  <CC50 [µM]>
100

$$$$
>  <COMPOUND>
CCOC(=O)CCC(NC(=O)c1ccc(Nc2nc3cc(N)cc(N)c3nc2-c2ccccc2)cc1)C(=O)OCC (configuration not stated)

>  <PREFIX_OPERATOR>
>

>  <CC50 [µM]>
100

$$$$
>  <COMPOUND>
Nc1cc(N)c2nc(-c3ccccc3)c(Nc3ccc(F)cc3)nc2c1

>  <PREFIX_OPERATOR>
>

>  <CC50 [µM]>
100

$$$$

====

pKi: −log10 of the molar value.
# pKi per entry for Thymidylate synthase (Homo sapiens, UniProt P04818)

>  <MOLECULE>
COc1ccc(Nc2nc3cc(N)cc(N)c3nc2-c2ccccc2)cc1

>  <TESTED_SYSTEM>
Thymidylate synthase (Homo sapiens, UniProt P04818)
Sequence (P04818 whole entry): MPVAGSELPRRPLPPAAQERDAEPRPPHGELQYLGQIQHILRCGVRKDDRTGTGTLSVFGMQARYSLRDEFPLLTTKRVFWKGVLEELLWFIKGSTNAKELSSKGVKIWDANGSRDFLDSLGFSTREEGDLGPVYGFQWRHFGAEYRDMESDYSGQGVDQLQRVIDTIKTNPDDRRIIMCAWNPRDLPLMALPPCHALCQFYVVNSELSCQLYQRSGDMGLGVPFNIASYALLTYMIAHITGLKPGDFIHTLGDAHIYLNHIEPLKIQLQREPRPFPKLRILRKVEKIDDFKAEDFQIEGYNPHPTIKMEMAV

>  <pKi>
5.22

$$$$
>  <MOLECULE>
CCOC(=O)CCC(NC(=O)c1ccc(Nc2nc3cc(N)cc(N)c3nc2-c2ccccc2)cc1)C(=O)OCC (stereo not given)

>  <TESTED_SYSTEM>
Thymidylate synthase (Homo sapiens, UniProt P04818)

>  <pKi>
4.47

$$$$
>  <MOLECULE>
Nc1cc(N)c2nc(-c3ccccc3)c(Nc3ccc(Cl)c(Cl)c3)nc2c1

>  <TESTED_SYSTEM>
Thymidylate synthase (Homo sapiens, UniProt P04818)

>  <pKi>
6.05

$$$$
>  <MOLECULE>
COc1cc(Nc2nc3cc(N)cc(N)c3nc2-c2ccccc2)cc(OC)c1OC

>  <TESTED_SYSTEM>
Thymidylate synthase (Homo sapiens, UniProt P04818)

>  <pKi>
4.29

$$$$
>  <MOLECULE>
COc1cc(Nc2nc3cc(N)cc(N)c3nc2-c2ccccc2)cc(OC)c1

>  <TESTED_SYSTEM>
Thymidylate synthase (Homo sapiens, UniProt P04818)

>  <pKi>
4.60

$$$$
